Please respond with reported Met Kinase % Inhibition for every item in the list.
System: MET
PROTOCOL_SUMMARY: MET biochemical kinase assay
Design: species or system human; concentration or dose not given beside the values
Write it as a number; the unit % goes unstated.

## Input Look up and report measured Met Kinase % Inhibition (MET) for the following compound: CCOC(=O)CCc1c(C(=O)OCC)[nH]c(C=C2C(=O)Nc3ccc(S(=O)(=O)N4CCOCC4)cc32)c1CC(=O)OCC
## Output 53.7

## Input Look up and report measured Met Kinase % Inhibition (MET) for the following compound: Cc1c(O)ccc(C=C2C(=O)Nc3ccc(S(=O)(=O)N4CCOCC4)cc32)c1O
## Output 52.7

## Input Look up and report measured Met Kinase % Inhibition (MET) for the following compound: CC(C)c1ccc2occ(C=C3C(=O)Nc4ccc(CCCl)cc43)c(=O)c2c1
## Output 72.4

## Input Look up and report measured Met Kinase % Inhibition (MET) for the following compound: COc1ccc(C=C2C(=O)Nc3c(Br)cc(Br)cc32)c(O)c1
## Output 85.9

## Input Look up and report measured Met Kinase % Inhibition (MET) for the following compound: O=C1Nc2ccc(CCCl)cc2C1=Cc1cc(Cl)cc(Br)c1O
## Output 94.0

## Input Look up and report measured Met Kinase % Inhibition (MET) for the following compound: COc1cc(C=C2C(=O)Nc3c(Br)cc(Br)cc32)cc(OC)c1OC
## Output 70.6

* * *

SYSTEM_NAME: FLK-1 receptor (Mus musculus, UniProt P35918)
Construct: expressed in transfected cells; host or cells: NIH3T3 C7#3
Sequence (P35918 20-1345): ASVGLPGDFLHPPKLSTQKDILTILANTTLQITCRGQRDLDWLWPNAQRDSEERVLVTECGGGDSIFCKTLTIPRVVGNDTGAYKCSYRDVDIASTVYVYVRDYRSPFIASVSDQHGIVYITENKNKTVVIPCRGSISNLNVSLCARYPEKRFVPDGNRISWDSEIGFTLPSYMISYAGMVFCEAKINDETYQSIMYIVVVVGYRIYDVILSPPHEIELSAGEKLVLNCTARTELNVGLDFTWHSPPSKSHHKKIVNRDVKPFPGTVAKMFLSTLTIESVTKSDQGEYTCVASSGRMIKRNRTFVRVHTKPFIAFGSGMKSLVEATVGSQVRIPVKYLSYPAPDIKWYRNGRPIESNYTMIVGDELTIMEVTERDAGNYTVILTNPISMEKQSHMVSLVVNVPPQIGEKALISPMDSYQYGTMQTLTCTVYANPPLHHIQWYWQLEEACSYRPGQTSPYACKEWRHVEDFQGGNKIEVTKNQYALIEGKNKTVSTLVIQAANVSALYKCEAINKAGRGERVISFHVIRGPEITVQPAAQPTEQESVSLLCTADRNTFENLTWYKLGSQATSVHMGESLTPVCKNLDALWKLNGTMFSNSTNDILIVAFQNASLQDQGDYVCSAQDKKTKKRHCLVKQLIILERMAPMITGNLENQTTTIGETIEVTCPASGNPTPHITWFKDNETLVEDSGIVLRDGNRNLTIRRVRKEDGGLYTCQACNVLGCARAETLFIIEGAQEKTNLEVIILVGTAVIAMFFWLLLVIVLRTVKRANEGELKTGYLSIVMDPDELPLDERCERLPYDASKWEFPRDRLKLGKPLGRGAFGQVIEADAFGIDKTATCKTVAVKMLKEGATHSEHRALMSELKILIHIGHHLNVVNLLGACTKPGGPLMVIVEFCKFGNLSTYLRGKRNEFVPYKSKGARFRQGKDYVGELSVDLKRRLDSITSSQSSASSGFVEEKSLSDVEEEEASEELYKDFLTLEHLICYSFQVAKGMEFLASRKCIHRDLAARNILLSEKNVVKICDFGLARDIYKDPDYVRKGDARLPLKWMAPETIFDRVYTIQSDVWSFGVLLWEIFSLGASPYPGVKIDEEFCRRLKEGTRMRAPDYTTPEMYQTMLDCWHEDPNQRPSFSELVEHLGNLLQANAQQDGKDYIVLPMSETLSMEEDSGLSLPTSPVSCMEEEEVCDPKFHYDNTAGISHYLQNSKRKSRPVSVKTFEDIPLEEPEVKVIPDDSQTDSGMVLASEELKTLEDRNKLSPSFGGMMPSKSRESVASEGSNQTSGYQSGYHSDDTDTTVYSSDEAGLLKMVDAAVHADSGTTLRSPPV
PROTOCOL_SUMMARY: FLK-1 ELISA (kinase activity of the FLK-1 receptor in FLK-1/NIH3T3 cells, VEGF stimulated)
Type: cell-based
Method: An enzyme linked immunosorbent assay (ELISA) was conducted to measure the catalytic activity of the FLK-1 receptor and more specifically, the inhibition or activation of indolinone compounds on the catalytic activity of the FLK-1 receptor. Specifically, the following assay was conducted to measure catalytic activity of the FLK-1 receptor in FLK-1/NIH3T3 cells. […]
METRIC_NAME: Fik Kinase %Inhibition (%)
Write it as a number; the unit % goes unstated.

## Input Please give measured Fik Kinase %Inhibition of the following entry: CN1C(=O)C(=C2C(=O)Nc3c(Br)cc(Br)cc32)c2ccccc21 [10731/A10]
## Output -5.3

## Input Please give measured Fik Kinase %Inhibition of the following entry: O=C1Nc2ccc(I)cc2C1=Cc1cc([N+](=O)[O-])ccc1O [10733/B10]
## Output 5.7

## Input Please give measured Fik Kinase %Inhibition of the following entry: CC(C)c1cc(C=C2C(=O)Nc3ccc(I)cc32)cc(C(C)C)c1O [10724/B06]
## Output 13.4

## Input Please give measured Fik Kinase %Inhibition of the following entry: CC(C)(C)c1cc(C=C2C(=O)Nc3c(Br)cc(Br)cc32)cc([N+](=O)[O-])c1O [10722/A02]
## Output 0.8

## Input Please give measured Fik Kinase %Inhibition of the following entry: CCOc1cc(C=C2C(=O)Nc3ccc(I)cc32)ccc1O [10720/B09]
## Output 10.1

## Input Please give measured Fik Kinase %Inhibition of the following entry: O=C1Nc2c(Br)cc(Br)cc2C1=Cc1ccc(O)cc1O [10723/A08]
## Output -12.9

## Input Please give measured Fik Kinase %Inhibition of the following entry: O=C1Nc2ccc(S(=O)(=O)N3CCOCC3)cc2C1=Cc1cc(Cl)cc(Br)c1O [10727/F04]
## Output 15.3

## Input Please give measured Fik Kinase %Inhibition of the following entry: O=C1Nc2c(Br)cc(Br)cc2C1=Cc1ccncc1 [10729/A09]
## Output 0.4

## Input Please give measured Fik Kinase %Inhibition of the following entry: CNS(=O)(=O)c1ccc2c(c1)C(=Cc1c(Br)cnn1-c1ccc(Cl)cc1)C(=O)N2 [10725/D10]
## Output 9.0

* * *

Please respond with reported Biochem EGFR %Inhibition for every item in the list.
SYSTEM_NAME: EGFR (Homo sapiens)
Construct: Add 7 ug A431 cell lysate per well (EGFR source); endogenous in cells; host or cells: A431
Sequence (P00533 25-1210): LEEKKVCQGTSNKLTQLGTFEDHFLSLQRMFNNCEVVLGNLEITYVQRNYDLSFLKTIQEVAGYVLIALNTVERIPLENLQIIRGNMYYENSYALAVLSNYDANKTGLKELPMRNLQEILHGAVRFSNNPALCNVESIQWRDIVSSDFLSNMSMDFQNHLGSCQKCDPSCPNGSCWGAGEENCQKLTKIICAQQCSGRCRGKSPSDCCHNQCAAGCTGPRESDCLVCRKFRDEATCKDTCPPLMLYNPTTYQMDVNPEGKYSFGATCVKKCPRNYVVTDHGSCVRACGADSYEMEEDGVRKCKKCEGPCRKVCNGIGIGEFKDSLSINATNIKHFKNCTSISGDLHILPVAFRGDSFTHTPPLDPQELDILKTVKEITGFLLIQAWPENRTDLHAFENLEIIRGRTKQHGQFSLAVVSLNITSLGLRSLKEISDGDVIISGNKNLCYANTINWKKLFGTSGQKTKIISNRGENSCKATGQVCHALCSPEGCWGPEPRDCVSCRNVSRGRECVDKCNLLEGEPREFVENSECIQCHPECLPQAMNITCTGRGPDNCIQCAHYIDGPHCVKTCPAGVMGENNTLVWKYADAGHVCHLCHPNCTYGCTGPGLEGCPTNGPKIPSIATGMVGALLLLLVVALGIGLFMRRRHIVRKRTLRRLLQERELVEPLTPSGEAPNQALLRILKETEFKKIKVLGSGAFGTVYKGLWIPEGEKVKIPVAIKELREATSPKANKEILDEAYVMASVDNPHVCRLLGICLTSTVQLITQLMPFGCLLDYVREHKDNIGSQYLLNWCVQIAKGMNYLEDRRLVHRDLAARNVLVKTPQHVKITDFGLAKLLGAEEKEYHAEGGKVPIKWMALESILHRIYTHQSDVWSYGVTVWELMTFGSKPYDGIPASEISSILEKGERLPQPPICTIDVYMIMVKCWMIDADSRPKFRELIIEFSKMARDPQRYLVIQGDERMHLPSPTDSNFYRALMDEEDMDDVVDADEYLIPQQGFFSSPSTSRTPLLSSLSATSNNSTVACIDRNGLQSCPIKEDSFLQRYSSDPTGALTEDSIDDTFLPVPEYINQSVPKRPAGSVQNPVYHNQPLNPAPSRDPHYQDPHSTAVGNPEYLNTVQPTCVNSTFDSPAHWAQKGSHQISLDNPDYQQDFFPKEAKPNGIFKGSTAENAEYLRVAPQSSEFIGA
PROTOCOL_SUMMARY: EGFR ELISA assay (in vitro kinase activity, EGFR captured from A431 cell lysate)
Assay type: biochemical
Design: concentration or dose not given beside the values
Write it as a number; the unit % goes unstated.

## Input Please give measured Biochem EGFR %Inhibition of the following entry: CNS(=O)(=O)c1ccc2c(c1)C(=Cc1[nH]c(C)c(Br)c1Br)C(=O)N2
## Output 59.1

## Input Please give measured Biochem EGFR %Inhibition of the following entry: O=C1Nc2ccc(F)cc2C1=C1C(=O)Nc2ccc(S(=O)(=O)Nc3ccc(C(F)(F)F)cc3)cc21
## Output -8.5

## Input Please give measured Biochem EGFR %Inhibition of the following entry: COc1cc(Br)c(O)c(C=C2C(=O)Nc3ccc(I)cc32)c1
## Output -0.2

## Input Please give measured Biochem EGFR %Inhibition of the following entry: COc1ccc(C=C2C(=O)Nc3ccc(CCCl)cc32)cc1OC
## Output -34.1

## Input Please give measured Biochem EGFR %Inhibition of the following entry: CNS(=O)(=O)c1ccc2c(c1)C(=Cc1cc3c(cc1Cl)OCO3)C(=O)N2
## Output 8.6

## Input Please give measured Biochem EGFR %Inhibition of the following entry: O=C1Nc2c(Br)cc(Br)cc2C1=Cc1cc([N+](=O)[O-])ccc1O
## Output 14.2

## Input Please give measured Biochem EGFR %Inhibition of the following entry: O=C1Nc2ccc(S(=O)(=O)N3CCOCC3)cc2C1=Cc1ccc(Cl)s1
## Output 3.5

## Input Please give measured Biochem EGFR %Inhibition of the following entry: CC(=O)Oc1ccc(C=C2C(=O)Nc3ccc(S(=O)(=O)N4CCOCC4)cc32)cc1OC(C)=O
## Output -3.8

## Input Please give measured Biochem EGFR %Inhibition of the following entry: COc1ccc(C=C2C(=O)Nc3ccc(Br)c(C)c32)c(O)c1
## Output 62.7

## Input Please give measured Biochem EGFR %Inhibition of the following entry: O=C1Nc2ccc(CCCl)cc2C1=Cc1ccc(C(F)(F)F)cc1
## Output -39.4

## Input Please give measured Biochem EGFR %Inhibition of the following entry: COc1cccc(C=C2C(=O)Nc3ccc(S(=O)(=O)N4CCOCC4)cc32)c1OC
## Output -2.6

## Input Please give measured Biochem EGFR %Inhibition of the following entry: COc1c(I)cc(C=C2C(=O)Nc3c(Br)cc(Br)cc32)cc1C(C)(C)C
## Output 1.8

## Input Please give measured Biochem EGFR %Inhibition of the following entry: O=C1Nc2ccc(I)cc2C1=Cc1c[nH]c(=O)[nH]c1=O
## Output 37.2

* * *

System: MET
PROTOCOL_SUMMARY: MET biochemical kinase assay
Parameters: species or system human; concentration or dose not given beside the values
METRIC_NAME: Met Kinase % Inhibition (%)
Write it as a number; the unit % goes unstated.

## Input Please give measured Met Kinase % Inhibition of the following entry: O=C1Nc2ccc(S(=O)(=O)Nc3ccc(C(F)(F)F)cc3)cc2C1=CC1C=CCCC1 (centres unmarked) [10729/E11]
## Output 50.8

## Input Please give measured Met Kinase % Inhibition of the following entry: CNS(=O)(=O)c1ccc2c(c1)C(=Cc1ccc([N+](=O)[O-])cc1)C(=O)N2 [10734/D06]
## Output 30.6

## Input Please give measured Met Kinase % Inhibition of the following entry: Cc1c(Br)ccc2c1C(=Cc1cccc(C#N)c1)C(=O)N2 [10727/C08]
## Output 47.8

## Input Please give measured Met Kinase % Inhibition of the following entry: O=C1Nc2ccc(S(=O)(=O)Nc3ccc(C(F)(F)F)cc3)cc2C1=Cc1ccc([N+](=O)[O-])o1 [10718/E11]
## Output 37.5

## Input Please give measured Met Kinase % Inhibition of the following entry: O=C1Nc2c(Br)cc(Br)cc2C1=Cc1ccccc1Sc1ccc(Cl)cc1 [10727/A05]
## Output 29.0

## Input Please give measured Met Kinase % Inhibition of the following entry: Cc1cc(C)c(C=C2C(=O)Nc3ccc(S(=O)(=O)N4CCOCC4)cc32)[nH]1 [10721/F08]
## Output 76.1

## Input Please give measured Met Kinase % Inhibition of the following entry: CNS(=O)(=O)c1ccc2c(c1)C(=Cc1cc(C)c(O)c(C(C)(C)C)c1)C(=O)N2 [10726/D04]
## Output 62.9

## Input Please give measured Met Kinase % Inhibition of the following entry: Cc1ccc2occ(C=C3C(=O)Nc4ccc(I)cc43)c(=O)c2c1 [10731/B06]
## Output 56.2
